Values were extracted from paper PMC5540273.

Tested on: MKNK2
Run parameters: concentration: 1 μM, replicates: in singlicate; n = 1
Quantity kind: %Inh (%)
Please state the figure in %; there is no need to write the unit.

Write down measured %Inh (MKNK2) for this compound. Cc1nccc(-c2c(-c3ccc(F)cc3)ncn2CCCN2CCOCC2)n1.Cl 1

Write down measured %Inh (MKNK2) for this compound. Fc1ccc(-c2nn3cccc(F)c3c2-c2ccncc2)cc1 0

Write down measured %Inh (MKNK2) for this compound. Cc1cccc2c(-c3ccncn3)c(-c3ccc(F)cc3)nn12 3

Write down measured %Inh (MKNK2) for this compound. CC(=O)c1c(C)c2cnc(Nc3ccc(N4CCNCC4)cn3)nc2n(C2CCCC2)c1=O 0

Write down measured %Inh (MKNK2) for this compound. Cc1ccccc1Cn1ccn2c(=O)cc(N3CCOCC3)nc12 10

* * *

Please go through the items and note down their %Inh.
Test system: ERBB3
Run parameters: concentration: 1 μM, replicates: in singlicate; n = 1
Please state the figure in %; there is no need to write the unit.

Write down measured %Inh (ERBB3) for this molecule. CNCc1ccc2nc(NC(=O)c3ccc(C(C)(C)C)cc3)cn2c1 31

Write down measured %Inh (ERBB3) for this molecule. Cn1cncc1-c1cc2c(Nc3ccc(OCc4ccccc4)cc3)ncnc2cn1 [GW281179] 75

Write down measured %Inh (ERBB3) for this molecule. O=C1NC(=O)C(c2ccc(Cl)cc2)=C1Nc1ccc(O)cc1 [SB-340867] 0

Write down measured %Inh (ERBB3) for this molecule. CS(=O)(=O)CCNCc1nc(-c2ccc3ncnc(Nc4ccc(OCc5ccccc5)c(Cl)c4)c3c2)cs1.Cl [GW582764] 58

Write down measured %Inh (ERBB3) for this molecule. Cl.Cl.Cl.N#Cc1ccc(CCNc2nccc(-c3cccc(CN4CCNCC4)c3)n2)cc1 [GSK2137462] 0

Write down measured %Inh (ERBB3) for this molecule. CCc1ccc(-c2ccc3c(c2)-c2n[nH]cc2S(=O)(=O)N3C)cc1 15

Write down measured %Inh (ERBB3) for this molecule. O=c1cc(N2CCOCC2)nc2n(Cc3cccc(Cl)c3Cl)c3ccccc3n12 [GSK2299009] 0

Write down measured %Inh (ERBB3) for this molecule. O=C(Nc1n[nH]c2cc(-c3ccsc3)ccc12)C1CC1 [SB-732932] 5

Write down measured %Inh (ERBB3) for this molecule. Nc1cccc(-c2ccc3c(N)n[nH]c3c2)n1 [GSK2192730] 0

* * *

pKd: −log10 of the molar value.
Quantity kind: pKd

Write down measured pKd (LATS2) for this compound. COc1ccc(Nc2nccc(N3CCC(NC(=O)C(C)c4ccc(Cl)cc4)CC3)n2)cc1 (stereo not shown) < 5.00

* * *

Please go through the items and note down their %Inh.
Tested on: IRAK4
Run parameters: concentration: 1 μM, replicates: in singlicate; n = 1
Please state the figure in %; there is no need to write the unit.

Dear colleague, please send me the reported %Inh for CNC(=O)c1ccc(C)c(-n2c(C)cc(OCc3ccc(F)cc3F)c(Br)c2=O)c1 when you can. 0

Dear colleague, please send me the reported %Inh for COc1ccc(CSc2nnc(-c3ccc4nccn4c3)o2)cc1C(F)(F)F when you can. 38

Dear colleague, please send me the reported %Inh for Nc1ncnc2occ(-c3ccc4c(c3)CCN4C(=O)Cc3cc(F)ccc3F)c12 when you can. 0

Dear colleague, please send me the reported %Inh for COc1ccc(Nc2nccc(N3CCC(NC(=O)C(C)c4ccc(Cl)cc4)CC3)n2)cc1 (stereo not drawn) when you can. 0

Dear colleague, please send me the reported %Inh for O=C1NC(=O)C(c2ccc(Cl)cc2)=C1Nc1ccc(O)cc1 when you can. 0

Dear colleague, please send me the reported %Inh for COc1cccc(NC(=O)Nc2ccc(C)c(-c3ccc(C(=O)Nc4ccncc4)cc3)c2)c1 when you can. 1

Dear colleague, please send me the reported %Inh for Cc1c(Cn2c(C)c(C)n3c(=O)cc(N4CCOCC4)nc23)cccc1C(F)(F)F when you can. 0

Dear colleague, please send me the reported %Inh for O=C1NC(=O)C(c2ccc(Cl)cc2)=C1Nc1cccc(Cl)c1 when you can. 0

Dear colleague, please send me the reported %Inh for Cc1ccccc1Cn1ccn2c(=O)cc(N3CCOCC3)nc12 when you can. 13
